- assayTarget: PAF receptor (^3 H-PAF binding to human platelet plasma membrane) (Homo sapiens)
- Sequence (P25105 whole entry): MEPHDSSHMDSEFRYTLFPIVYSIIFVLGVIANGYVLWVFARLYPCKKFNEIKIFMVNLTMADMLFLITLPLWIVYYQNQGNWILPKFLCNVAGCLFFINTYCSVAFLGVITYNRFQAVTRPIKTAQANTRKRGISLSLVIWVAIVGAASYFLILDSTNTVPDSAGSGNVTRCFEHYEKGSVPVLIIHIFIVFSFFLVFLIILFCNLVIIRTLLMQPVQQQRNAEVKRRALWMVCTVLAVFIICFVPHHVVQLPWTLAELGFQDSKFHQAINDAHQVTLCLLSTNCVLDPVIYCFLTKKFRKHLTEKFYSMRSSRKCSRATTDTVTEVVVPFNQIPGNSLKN
- experimentNotes: Inhibition of ^3H-PAF binding to human platelet plasma membrane (isotopic labelling and filtration)
- cond: human platelet membranes, 0.5 nM ^3H-PAF, 1 hour, 0° C.
Assign log10 of IC50 to each entry below.
Please note: log10 values; quantity IC50; unit µM.

Q: Return log10 of IC50 measured with PAF receptor (^3 H-PAF binding to human platelet plasma membrane) (Homo sapiens) given this molecule: COc1ccc(C2CCC3(O2)C(=O)C(=Cc2cccnc2)CC3c2ccc(OC)c(OC)c2)cc1OC (centres unmarked) [Example 2]
A: 0.48

Q: # repeat for COc1ccc(C2CCC3(O2)C(=CC#N)CCC3c2ccc(OC)c(OC)c2)cc1OC (centres unmarked) [Example 17]
A: 0.18

Q: Subsequent entry: COc1ccc(C2CCC3(O2)C(=O)C(=Cc2cccnc2)CC3c2ccc(OC)cc2)cc1 (centres unmarked) [Example 19]
A: 0.95

Q: Cool, now COc1ccc(C2CCC3(O2)C(=O)CCC3c2ccc(OC)cc2)cc1 (centres unmarked) [Example 18]
A: 0.70

Q: Query COc1ccc(C2CCC3(O2)C(=O)C(=CCCCCc2cccnc2)CC3c2ccc(OC)c(OC)c2)cc1OC (centres unmarked) [Example 11] next
A: 0.00

Q: Try this molecule next: COc1ccc(C2CCC3(O2)C(=O)C(=CCCc2cccnc2)CC3c2ccc(OC)c(OC)c2)cc1OC (centres unmarked) [Example 10]
A: 0.18

Q: Could you do the same for COc1ccc(C2CCC3(O2)C(=O)CCC3c2ccc(OC)c(OC)c2)cc1OC (single isomer, unassigned) [Example 1A] , please?
A: 1.08

Q: Repeat with COc1ccc(C2CCC3(O2)C(=O)C(=Cc2cccc(Cl)c2)CC3c2ccc(OC)c(OC)c2)cc1OC (centres unmarked) [Example 5]
A: 0.70

Value source: patent US5300524A
